Hey, just so you know, these numbers are from patent US20250382354A1.

Listing: Ancestral Pseudovirus IC50 of selected binders
Biological target: C-terminally truncated SARS-CoV-2 S protein (pSARS-CoV2-Strunc), ancestral (SARS-CoV-2, UniProt P0DTC2 14-1273)
Assay: cell-based or functional assay
quantity: Ancestral Pseudovirus IC50 (mg/L)

- binder: "fp.002 (antibody, V domains shown) VH: VQLVESGGGVVQPGTSLRLSCAGSGFNFDNYAIHWVRQAPGQGLEWVAIISYEARNKKYAGSVTGRFSISRDNSKSMVYLQMDSLRGEDTAVYYCARDLFLSDYDRSGYDPTRGGFDLWGQGTLVTVSS VL: EIVMTQSPATLSVSPGERATLSCRASQSVSSSLAWYQHKLGQAPRLLIYGASTRATGIPGRFSGSGSGTEFTLTISSLQSEDVAIYYCQQYGDWPLVTFGGGTKVEIK"
  data-value: 16.1
- binder: "fp.008 (antibody, V domains shown) VH: VQLVESGGGVVQPGRSLRLSCRASGFRFNNYAMHWVRQAPGKGLEWVAIISYEARNEKYAASVKGRFSISRDNAKNTLYLQMNSLRPEDTAIYYCARDVFLSDYDQSGYDVTRGGFDYWGQGTLVTVSS VL: EIVMTQSPATLSVSPGESATLSCRASQSVSSSLAWYQHKFGQAPRLLIYGASTRATGIPDRFSGSGSGMEFTLTISSLQSEDVAIYYCQQYGDWPLVTFGGGTKVEIK"
  data-value: 3.56
- binder: "hr2.021 (antibody, V domains shown) VH: QVQLVQSGAEVKKPGASVKVSCKASEAIFSGSYLHWVRQAPGQGLEWMGIITPSGDKTFYAQRFQGRLTMTRDTSTNTLHMHLSGLNSEDTAMYYCARQADKGGWDYWGQGTLVTVSS VL: EIVLTQSPGTLSLSPGERATLSCRASQSVTSNYVAWYQQKPGQAPRLLIYGASTRATGIPDRFSGGGSGTDFTLTITRLEPEDFAVYYCQQYGSSPPTFTFGPGTKVDIK"
  data-value: 3.02
- binder: "fp.005 (antibody, V domains shown) VH: VQLVESGGGVVQPGNSLRLSCAASGFRFNNYAMHWVRQAPGKGLEWVAIISYEARNEKYADSVKGRFSISRDNAKNTLYLQMNSLRADDTGVYYCARDLFLSDYDTSGYDRTRGGFDYWGQGALVTVSS VL: EIVMTQSPATLSVSPGERATLSCRASQSVSNGLAWYQHRFGQPPRLLIYGASTRATGIPTRFSGSGSGTEFTLTISSLQSEDFAVYYCQQYDDWPLITFGGGTKVEIK"
  data-value: 9.09
